Values compiled from patent US9108951B2.

- Tested System: purified human Factor XIa (Homo sapiens (Human), UniProt P03951)
- Sequence (P03951 388-625): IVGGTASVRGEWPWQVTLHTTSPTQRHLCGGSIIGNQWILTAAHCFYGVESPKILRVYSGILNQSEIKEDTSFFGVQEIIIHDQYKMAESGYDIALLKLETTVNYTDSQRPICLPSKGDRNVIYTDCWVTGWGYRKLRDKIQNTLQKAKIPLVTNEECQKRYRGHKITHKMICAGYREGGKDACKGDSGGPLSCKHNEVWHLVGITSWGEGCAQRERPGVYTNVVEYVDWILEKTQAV
- Sequence (P03951 19-387 partner): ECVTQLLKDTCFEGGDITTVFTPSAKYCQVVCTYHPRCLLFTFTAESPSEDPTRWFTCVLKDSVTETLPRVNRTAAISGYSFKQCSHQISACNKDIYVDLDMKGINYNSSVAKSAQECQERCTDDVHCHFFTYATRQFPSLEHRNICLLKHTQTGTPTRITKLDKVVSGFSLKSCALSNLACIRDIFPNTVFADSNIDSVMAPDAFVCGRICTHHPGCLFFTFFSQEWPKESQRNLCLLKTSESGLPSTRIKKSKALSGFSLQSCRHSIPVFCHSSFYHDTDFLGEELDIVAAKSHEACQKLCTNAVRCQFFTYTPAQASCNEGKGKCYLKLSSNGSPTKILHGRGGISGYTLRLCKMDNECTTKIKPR
Where a name gives a salt, the structure may show the parent alone.
Property Label: Ki (nM)

CC1(C)CN(C(=O)/C=C/c2cc(Cl)ccc2-n2cnnn2)C(C(=O)Nc2ccc(C(=O)O)cc2)c2c(Br)cccc21 (centres unmarked) [Example 55]    172
Cc1[nH]nc2c1C(C(=O)Nc1ccc(C(=O)O)cc1)N(C(=O)/C=C/c1c(-n3cnnn3)ccc(Cl)c1F)CC2 (centres unmarked) [Example 77, TFA salt]    5.02

a. O=C(Nc1ccc(C2CCCN2)cc1)[C@@H]1c2ccccc2CCN1C(=O)/C=C/c1cc(Cl)ccc1-n1cnnn1 (some centres unmarked) [Example 40, TFA salt]
b. CCc1nn(C)c2c1C(C(=O)Nc1ccc(C(=O)O)cc1)N(C(=O)/C=C/c1cc(Cl)ccc1-n1cnnn1)CC2 (centres unmarked) [Example 65, TFA salt]
Would you kindly point out which of a and b has the smaller Ki figure? Select an item and report its label.
b
(b: 23.3 nM, a: 6730 nM)
